assay text: Pharmacokinetic measurements in mice (intravenous and intra-nasal dosing)
Assay type: in vivo
setup conditions: male, C57BL/6J, lung, iv, 0.2 mg/kg; mouse, i.v. dosing, 6 h, mean; read-out: lung concentration (nM) at time (h)
measured attribute: concentration at 6 h (nM)

I: COC(=O)c1cc2c(cc1C)/C(=C(/Nc1ccc(C(=O)NOCCN(C)C)c(C)c1)c1ccccc1)C(=O)N2
II: COC(=O)c1cc2c(cc1C)/C(=C(/Nc1ccc(C(=O)NOCCN3CCN(C)CC3)cc1)c1ccccc1)C(=O)N2
Ask: Which record would sort first by descending concentration at 6 h, I or II ? # respond with the chosen item's label
Result: I
(I: 306 nM, II: 46 nM)

---

system under test: PDGFRβ (Homo sapiens (Human), UniProt P09619)
Sequence (P09619 33-1106): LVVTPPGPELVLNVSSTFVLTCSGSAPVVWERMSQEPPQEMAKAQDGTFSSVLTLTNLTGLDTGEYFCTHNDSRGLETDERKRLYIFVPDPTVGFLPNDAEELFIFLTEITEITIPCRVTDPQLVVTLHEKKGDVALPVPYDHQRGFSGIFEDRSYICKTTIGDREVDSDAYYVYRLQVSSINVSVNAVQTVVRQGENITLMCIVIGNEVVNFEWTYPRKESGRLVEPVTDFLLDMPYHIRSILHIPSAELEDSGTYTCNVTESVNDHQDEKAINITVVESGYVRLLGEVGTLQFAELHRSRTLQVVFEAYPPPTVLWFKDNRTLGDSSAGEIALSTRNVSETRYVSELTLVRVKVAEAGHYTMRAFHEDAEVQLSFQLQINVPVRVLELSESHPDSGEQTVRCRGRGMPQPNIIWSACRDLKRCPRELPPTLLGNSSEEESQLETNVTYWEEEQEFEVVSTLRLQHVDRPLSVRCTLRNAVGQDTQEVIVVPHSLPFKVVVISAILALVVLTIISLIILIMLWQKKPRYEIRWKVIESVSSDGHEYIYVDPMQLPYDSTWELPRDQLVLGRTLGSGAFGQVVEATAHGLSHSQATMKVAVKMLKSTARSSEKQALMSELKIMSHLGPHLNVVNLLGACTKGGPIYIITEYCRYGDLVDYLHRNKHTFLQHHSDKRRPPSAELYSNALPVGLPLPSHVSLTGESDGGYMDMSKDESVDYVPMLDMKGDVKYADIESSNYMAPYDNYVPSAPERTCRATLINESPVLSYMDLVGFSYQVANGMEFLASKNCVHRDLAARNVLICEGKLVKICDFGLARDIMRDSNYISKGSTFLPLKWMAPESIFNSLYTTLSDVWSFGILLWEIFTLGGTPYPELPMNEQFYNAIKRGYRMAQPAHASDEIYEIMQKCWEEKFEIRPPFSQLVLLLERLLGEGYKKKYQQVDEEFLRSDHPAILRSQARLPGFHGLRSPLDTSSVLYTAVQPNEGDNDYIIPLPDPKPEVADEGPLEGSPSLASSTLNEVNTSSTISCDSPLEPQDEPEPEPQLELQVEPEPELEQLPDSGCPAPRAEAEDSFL
assay text: PDGF-BB induced phosphorylation of PDGFRβ in fibroblasts (MRC5 cells, HTRF)
Assay type: cell-based
setup conditions: MRC5 cells; n = 1 unless otherwise indicated; read-out: PDGFBB-induced PDGFRβ phosphorylation in MRC5 cells (IC50)
measured attribute: IC50 (nM)

Answered cases to consult:
COC(=O)c1ccc2c(c1)NC(=O)/C2=C(\Nc1ccc(C(=O)N(C)OCCN2CCN(C)CC2)c(C)c1)c1ccccc1 [Example 18] = 3.68
COC(=O)c1cc2c(cc1C)/C(=C(/Nc1ccc(C(=O)NOC3CCN(C)CC3)c(C)c1)c1ccccc1)C(=O)N2 [Example 31] = 7.72
COC(=O)c1ccc2c(c1)NC(=O)/C2=C(\Nc1ccc(C(=O)NOCCN2CC[C@H](N(C)C)C2)cc1)c1ccccc1 [Example 38] = 14.6

I: COC(=O)c1cc2c(cc1C)/C(=C(/Nc1ccc(C(=O)NOCCCN(C)C)cc1)c1ccccc1)C(=O)N2 [Example 27]
II: COC(=O)c1cc2c(cc1C)/C(=C(/Nc1ccc(C(=O)N(OC)C3CCN(C)CC3)cc1)c1ccccc1)C(=O)N2 [Example 35]
III: COC(=O)c1ccc2c(c1)NC(=O)/C2=C(\Nc1ccc(S(=O)(=O)N(C)OC)cc1)c1ccccc1 [Example 11]
IV: COC(=O)c1cc2c(cc1C)/C(=C(/Nc1ccc(C(=O)N(C)OCCN3CCN(CCO)CC3)cc1)c1ccccc1)C(=O)N2 [Example 58]
Ask: Sort by IC50, descending. Give the labels in the order requested.
Result: II, III, I, IV

---

Tested on: MRC5 cells
assay text: Cell viability assay in MRC5 cells (MTT)
setup conditions: 100 nM
measured attribute: Cell viability at 100 nM (%)
The figure you give is taken to be in %; do not add the unit.

COC(=O)c1ccc2c(c1)NC(=O)/C2=C(\Nc1ccc(S(=O)(=O)N(C)OCCN2CCN(C)CC2)cc1)c1ccccc1 = 108.5

Ask: # query: Cell viability at 100 nM (%) | item COC(=O)c1ccc2c(c1)NC(=O)/C2=C(\Nc1ccc(C(=O)NOCCN(C)CCO)cc1)c1ccccc1 | system: MRC5 cells
Result: 98.9

Ask: Cell viability at 100 nM (%) of COC(=O)c1cc2c(cc1C)/C(=C(/Nc1ccc(C(=O)NOCCN(C)C)c(C)c1)c1ccccc1)C(=O)N2 on MRC5 cells?
Result: 100.6

Ask: Lab note: need Cell viability at 100 nM (%) with MRC5 cells for entry COC(=O)c1cc2c(cc1C)/C(=C(/Nc1ccc(C(=O)NOCCN3CCC(O)CC3)cc1)c1ccccc1)C(=O)N2 , please look it up.
Result: 101
